Assay: Viability Counterscreen for Confirmatory qHTS for Inhibitors of ATXN expression; further: nearly all actives have a fitted effect of over 50% in size
Settings: HEK-293 ATXN2-luc cells viability, CellTiter-Fluor, 24 h
About 260 (12%) of roughly 2,100 compounds were called active. Not shown: some 58% with an inconclusive outcome. The call rests on the fitted dose curve; in most records, active means well fitted cell-killing curve with a large enough effect; inconclusive means small, poorly fitted or top-dose-only effect, or effect the other way; inactive means flat fitted curve, though single readings scatter. The list shows a part of the results.
The reply should name one outcome from Y = active, N = inactive

Example cases with answers are listed next.
> print(dat)
                                   compound  labelclass
1        O=C(NNC1=Nc2ccccc2SC1)c1ccc(Cl)cc1           N
2  COc1ccc(/C=C2\CN(Cc3ccccc3)C/C(=C\c3ccc(OC)c(O)c3)C2=O)cc1O           Y
3  COc1ccc(CCNC2=C(Cl)C(=O)N(Cc3ccccc3)C2=O)cc1OC           N

IN: // return assay outcome for `COc1c(C)cccc1C(=O)Nc1ccc(N2CCN(C(=O)c3ccccc3C)CC2)cc1`
OUT: Y

IN: Any idea what this test logged for CCc1ccc(C(O)c2ncc(-c3cccc(C(F)(F)F)c3)[nH]2)cc1 (stereo not given) ?
OUT: N

###

Experiment: Viability Counterscreen for Confirmatory qHTS for Inhibitors of ATXN expression; further: nearly all actives have a fitted effect of over 50% in size
Details: HEK-293 ATXN2-luc cells viability, CellTiter-Fluor, 24 h
Screen size: about 2,100 compounds; about 260 (12%) were called active. Another 58% or so got no clear call; they are omitted. Calls come from the whole dose curve; as a rule, active = well fitted cell-killing curve with a large enough effect; inconclusive = small, poorly fitted or top-dose-only effect, or effect the other way; inactive = flat fitted curve, though single readings scatter. The list shows a part of the results.
// classify into active, inactive

> print(dat)
                                    compound  labelclass
 1  CN(c1ccc(OCC(=O)N2CCN(c3ccc(F)cc3)CC2)cc1)S(=O)(=O)c1cccs1    inactive
 2  Cc1ccc(S(=O)(=O)/C(=C/Cl)NC(=O)c2ccccc2)cc1      active
 3  CCN(CC)CCCNc1nc2ccccc2c2nc(-c3ccncc3)nn12      active
 4  O=C(Nc1cccc(Cl)c1)c1ccc2c(c1)SC1=NS(=O)(=O)CCN12    inactive
 5  COc1ccc(O)c(/C=N/NC(=O)c2ccc(OCc3cccc(Br)c3)cc2)c1    inactive
 6  Cc1c(C(=O)N/N=C/c2c(O)ccc3ccccc23)nnn1-c1nonc1N    inactive
 7  COc1ccc(Cc2nnc(N/N=C/c3ccccc3O)[nH]c2=O)cc1OC      active
 8  COc1ccc(C(NC(C)=O)c2cc(Cl)c3cccnc3c2O)cc1OC (configuration not stated)      active
 9  CCn1c(C)cc(C(=O)CN2C(=O)c3ccccc3S2(=O)=O)c1C    inactive
10  c1ccc(COc2ncnc3c2ncn3CCCN2CCN(Cc3cccc4ccccc34)CC2)cc1      active

IN: Please state the recorded outcome for this compound: `Cc1cc2sc3ccc(C#CC4(O)CCCCC4)cc3c(=O)c2cc1C`
OUT: inactive

IN: Hello, I am checking results. What call was entered for `C/C(=N\NC(=O)c1cccc2ccccc12)c1ccccn1` ?
OUT: active

IN: Can you look up the reported call for `Cc1ccc(SC2=C(N(C)C)C(=O)c3ccccc3C2=O)cc1` for me?
OUT: inactive

IN: Hi team, can someone confirm the assay call for `Cc1ccc(-c2ccc(/C=N/c3ncn[nH]3)o2)cc1Cl` ?
OUT: inactive

IN: Name the outcome recorded for Cc1ccc(Cc2cnc(N3C(=N)SC(C)C3=O)s2)cc1 (configuration not stated) in the assay.
OUT: inactive

IN: What is the recorded call for this compound in the test? `COc1ccc(C(=O)NC(=C(Cl)Cl)S(=O)(=O)c2ccc(C)cc2)cc1`
OUT: inactive

IN: For this compound, state the assay outcome: COc1cccc(CN2CCC2(C)C(=O)Nc2cccc3cccnc23)c1OC (configuration not stated)
OUT: inactive

IN: How was `O=C(CN1C(=O)c2ccccc2S1(=O)=O)c1ccc(O)c(O)c1` classified in this test?
OUT: inactive
